Below are ΔTm values recorded for 3-phosphoinositide-dependent protein kinase 1 (Homo sapiens) (UniProt O15530).
QUANTITY: ΔTm (°C)

| SAMPLE SMILES | RECORDED MEASUREMENT |
| --- | --- |
| NCCNS(=O)(=O)c1cccc2c(Cl)cccc12 | -0.2 |
| Cc1ccc(NC(=O)c2cccc(N(C)C)c2)cc1NC(=O)c1ccc(O)cc1 | -0.4 |
| CC(C)n1cnc2/c(=N/c3cccc(Cl)c3)nc(NCCO)[nH]c21 | 0 |
| Nc1nc(Nc2ccc(S(N)(=O)=O)cc2)nn1C(=S)Nc1c(F)cccc1F | 0.4 |
| CN1CCC(Nc2ncc3ncnc(Nc4ccc(F)c(Cl)c4)c3n2)CC1 | 0.1 |
| O=C1Nc2cc(Br)ccc2/C1=C1/Nc2ccccc2/C1=N\O | -0.6 |
